TEST SUMMARY: CelltiterGlo viability cell assay
Assay type: cell-based
COND: human, MDA-MB-436 breast cancer cells, MDA MB436, 3 day, 0.01 uM; read-out: viability Average
MEASURE: viability at 3 day, 0.01 µM (%)
Number only, in %; omit the unit.

For COc1cc(OC)cc(-c2noc(N3CCN(C)C4(CCN(c5ccnc(C)c5)CC4)C3)n2)c1 , what is its reported viability at 3 day, 0.01 µM? 104

###

TEST SUMMARY: CelltiterGlo viability cell assay
Format: cell-based
COND: human, SKMM2 multiple myeloma cells, SKMM2, 6 day, 0.3 uM; read-out: viability Replicate 3
MEASURE: viability at 6 day, 0.3 µM

# query: viability at 6 day, 0.3 µM of entry COc1cc(OC)cc(-c2noc(N3CCN(C)C4(CCN(c5ccnc(C)c5)CC4)C3)n2)c1 [MRK-740] 100%
